target: STK33 (human); experiment: KINOMEscan competition binding; conditions: compound 10.0 µM
Reported kinase still bound, per cent of control by item:
Give the quantity in %, number only.

In the examples that follow, each entry is paired with its recorded kinase still bound, per cent of control.
ITEM SMILES: O=C(O)c1ccc(Nc2ncc3c(n2)-c2ccc(Cl)cc2C(c2c(F)cccc2F)=NC3)cc1
ASSAY TARGET: STK33 (human)
NUMERIC READOUT: 100
--
ITEM SMILES: CN(C)C/C=C/C(=O)Nc1cccc(Nc2ncc3c(n2)N(C)c2ccccc2C(=O)N3C)c1
ASSAY TARGET: STK33 (human)
NUMERIC READOUT: 8.9
--
ITEM SMILES: C=CC(=O)Nc1cccc(Oc2nc(Nc3ccc(N4CCN(C)CC4)cc3OC)ncc2Cl)c1
ASSAY TARGET: STK33 (human)
NUMERIC READOUT: 1.3
--
ITEM SMILES: Cc1ccc(C(=O)Nc2cccc(C(F)(F)F)c2)cc1Nc1cncc(C(N)=O)c1
ASSAY TARGET: STK33 (human)
NUMERIC READOUT: 100

Turning now to a further molecule:
Form: Entry = `CC[C@@H]1C(=O)N(C)c2cnc(Nc3ccc(C(=O)NC4CCN(C)CC4)cc3OC)nc2N1C1CCCC1` | System = STK33 (human) | kinase still bound, per cent of control = ____
14

----------
target: MAPK14 (human); assay: KINOMEscan competition binding; conditions: compound 10.0 µM
Reported kinase still bound, per cent of control by item:
Give the quantity in %, number only.

In the examples that follow, each entry is paired with its recorded kinase still bound, per cent of control.
COMPOUND: C=CC(=O)Nc1cc(NC(=O)c2ccc(C)c(NC(=O)c3ccno3)c2)cc(C(F)(F)F)c1
UNIT ABBREVIATION: %
kinase still bound, per cent of control: 0.5

COMPOUND: COc1cc(C(=O)NC2CCN(C)CC2)ccc1Nc1ncc2c(n1)N(C1CCCC1)C(C)CC(=O)N2C (stereo not given)
UNIT ABBREVIATION: %
kinase still bound, per cent of control: 100

COMPOUND: CCCS(=O)(=O)Nc1ccc(F)c(C(=O)c2c[nH]c3ncc(-c4ccc(Cl)cc4)cc23)c1F
UNIT ABBREVIATION: %
kinase still bound, per cent of control: 70

Form: Entry = `CC[C@@H]1C(=O)N(C)c2cnc(Nc3ccc(C(=O)NC4CCN(C)CC4)cc3OC)nc2N1C1CCCC1` | System = MAPK14 (human) | kinase still bound, per cent of control = ____
100

Same for `O=C(NC1CC1)c1cccc(-c2ccc3c(NC(=O)C4CC4)n[nH]c3c2)c1`
2

Same for `Cn1c(=O)n(-c2ccc(C(C)(C)C#N)cc2)c2c3cc(-c4cnc5ccccc5c4)ccc3ncc21`
100

----------
Reported kinase still bound, per cent of control by item:
molecular target: MYLK (human) (UniProt Q15746); test: KINOMEscan competition binding; settings: compound 10.0 µM
Sequence (Q15746 whole entry, looked up): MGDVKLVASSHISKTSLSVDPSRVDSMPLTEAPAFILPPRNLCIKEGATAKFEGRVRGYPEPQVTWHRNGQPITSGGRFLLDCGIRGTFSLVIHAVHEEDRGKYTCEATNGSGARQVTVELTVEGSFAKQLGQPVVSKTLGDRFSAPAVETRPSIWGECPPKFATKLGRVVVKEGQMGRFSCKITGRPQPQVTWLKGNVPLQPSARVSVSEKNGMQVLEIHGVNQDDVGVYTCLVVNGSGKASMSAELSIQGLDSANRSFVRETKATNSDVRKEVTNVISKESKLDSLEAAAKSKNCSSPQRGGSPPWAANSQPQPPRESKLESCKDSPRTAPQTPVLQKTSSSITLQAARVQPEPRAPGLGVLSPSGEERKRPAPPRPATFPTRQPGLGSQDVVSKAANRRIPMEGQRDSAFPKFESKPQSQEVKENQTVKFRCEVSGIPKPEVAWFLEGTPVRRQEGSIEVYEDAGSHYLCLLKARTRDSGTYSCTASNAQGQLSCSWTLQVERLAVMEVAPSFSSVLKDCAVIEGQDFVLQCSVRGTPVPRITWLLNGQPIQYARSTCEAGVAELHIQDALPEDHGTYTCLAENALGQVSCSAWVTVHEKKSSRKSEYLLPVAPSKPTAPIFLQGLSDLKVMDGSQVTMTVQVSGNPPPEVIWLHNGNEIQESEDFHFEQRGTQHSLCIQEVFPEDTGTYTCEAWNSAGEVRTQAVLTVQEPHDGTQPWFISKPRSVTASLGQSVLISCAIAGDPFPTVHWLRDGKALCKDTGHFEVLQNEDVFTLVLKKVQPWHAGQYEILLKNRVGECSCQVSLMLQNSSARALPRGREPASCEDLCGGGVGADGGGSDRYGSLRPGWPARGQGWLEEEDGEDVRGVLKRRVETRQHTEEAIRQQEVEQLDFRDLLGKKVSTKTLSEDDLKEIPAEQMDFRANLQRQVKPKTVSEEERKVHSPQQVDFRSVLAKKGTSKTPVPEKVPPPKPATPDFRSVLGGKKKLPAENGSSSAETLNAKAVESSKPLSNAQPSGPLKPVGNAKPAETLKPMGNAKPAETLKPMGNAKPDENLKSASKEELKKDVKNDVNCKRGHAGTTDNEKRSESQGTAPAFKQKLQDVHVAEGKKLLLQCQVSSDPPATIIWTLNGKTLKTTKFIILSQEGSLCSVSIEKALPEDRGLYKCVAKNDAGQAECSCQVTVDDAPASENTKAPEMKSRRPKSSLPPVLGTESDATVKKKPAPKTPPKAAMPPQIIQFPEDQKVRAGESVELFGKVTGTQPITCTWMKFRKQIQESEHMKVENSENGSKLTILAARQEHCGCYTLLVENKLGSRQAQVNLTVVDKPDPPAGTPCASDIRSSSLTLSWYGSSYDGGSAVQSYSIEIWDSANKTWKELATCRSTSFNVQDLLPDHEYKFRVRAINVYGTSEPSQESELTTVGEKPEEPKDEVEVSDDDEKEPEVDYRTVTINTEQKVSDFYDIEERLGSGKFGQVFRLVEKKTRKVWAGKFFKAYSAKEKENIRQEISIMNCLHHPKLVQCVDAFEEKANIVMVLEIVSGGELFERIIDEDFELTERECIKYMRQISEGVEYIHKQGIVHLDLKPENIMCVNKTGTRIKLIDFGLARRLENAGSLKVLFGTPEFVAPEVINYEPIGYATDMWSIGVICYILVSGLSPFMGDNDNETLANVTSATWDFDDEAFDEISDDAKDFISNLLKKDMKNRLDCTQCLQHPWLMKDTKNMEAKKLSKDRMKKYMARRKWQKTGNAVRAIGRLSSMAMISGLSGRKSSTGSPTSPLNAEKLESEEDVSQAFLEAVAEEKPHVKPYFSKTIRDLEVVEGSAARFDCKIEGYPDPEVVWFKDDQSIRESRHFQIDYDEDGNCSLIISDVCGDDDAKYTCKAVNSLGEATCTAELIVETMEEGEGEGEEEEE
Give the quantity in %, number only.

In the examples that follow, each entry is paired with its recorded kinase still bound, per cent of control.
ITEM SMILES: CCOc1cc2ncc(C#N)c(Nc3ccc(OCc4ccccn4)c(Cl)c3)c2cc1NC(=O)/C=C/CN(C)C
kinase still bound, per cent of control / %: 73

ITEM SMILES: COc1cc(C(=O)NC2CCN(C)CC2)ccc1Nc1ncc2c(n1)N(C1CCCC1)CCC(=O)N2C(C)C
kinase still bound, per cent of control / %: 100

ITEM SMILES: CCC(=O)N1CCN(c2ccc(-n3c(=O)ccc4cnc5ccc(-c6cnc7ccccc7c6)cc5c43)cc2C(F)(F)F)CC1
kinase still bound, per cent of control / %: 87

// kinase still bound, per cent of control lookup, key: `C[C@@H](Oc1cc(-n2cnc3ccc(CN4CCN(C)CC4)cc32)sc1C(N)=O)c1ccccc1C(F)(F)F`
62

----------
system: ABL1 (human), P00519 [E255K]; assay: KINOMEscan competition binding; conditions: compound 10.0 µM
Sequence (P00519 whole entry E255K, looked up): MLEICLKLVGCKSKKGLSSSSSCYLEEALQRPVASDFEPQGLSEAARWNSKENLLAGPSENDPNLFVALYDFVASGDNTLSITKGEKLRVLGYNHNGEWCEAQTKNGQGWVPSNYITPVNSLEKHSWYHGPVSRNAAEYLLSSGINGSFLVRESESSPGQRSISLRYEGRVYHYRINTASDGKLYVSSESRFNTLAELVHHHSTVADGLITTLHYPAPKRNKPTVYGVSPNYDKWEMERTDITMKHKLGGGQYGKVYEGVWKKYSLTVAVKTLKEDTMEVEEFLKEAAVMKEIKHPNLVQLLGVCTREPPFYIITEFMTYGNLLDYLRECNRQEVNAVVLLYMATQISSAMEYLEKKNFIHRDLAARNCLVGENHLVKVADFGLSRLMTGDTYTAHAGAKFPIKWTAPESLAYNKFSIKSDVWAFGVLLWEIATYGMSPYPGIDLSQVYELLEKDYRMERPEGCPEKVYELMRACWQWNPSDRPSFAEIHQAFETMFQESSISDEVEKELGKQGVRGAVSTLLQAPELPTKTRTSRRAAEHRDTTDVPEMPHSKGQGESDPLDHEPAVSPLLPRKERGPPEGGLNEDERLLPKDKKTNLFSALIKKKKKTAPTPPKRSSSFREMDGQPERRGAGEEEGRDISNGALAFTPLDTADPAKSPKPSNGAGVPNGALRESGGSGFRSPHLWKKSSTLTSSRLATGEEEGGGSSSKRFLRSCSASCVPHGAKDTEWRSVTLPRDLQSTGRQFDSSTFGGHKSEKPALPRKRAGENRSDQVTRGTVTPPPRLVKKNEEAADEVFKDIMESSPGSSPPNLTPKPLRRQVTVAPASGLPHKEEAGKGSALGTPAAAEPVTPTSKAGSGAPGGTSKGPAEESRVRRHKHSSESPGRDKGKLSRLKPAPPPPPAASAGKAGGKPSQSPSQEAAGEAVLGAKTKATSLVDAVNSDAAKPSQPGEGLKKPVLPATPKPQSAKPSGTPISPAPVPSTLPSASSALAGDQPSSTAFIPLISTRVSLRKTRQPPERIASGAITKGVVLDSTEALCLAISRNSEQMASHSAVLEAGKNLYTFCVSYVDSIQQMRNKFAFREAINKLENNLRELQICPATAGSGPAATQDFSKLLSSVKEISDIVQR
Reported kinase still bound, per cent of control by item:
Give the quantity in %, number only.

In the examples that follow, each entry is paired with its recorded kinase still bound, per cent of control.
ITEM SMILES: N#Cc1cc(-c2ccnc(Nc3ccc(-n4cnc(-c5cccnc5)n4)cc3)n2)cc(N2CCOCC2)c1
OBSERVABLE: kinase still bound, per cent of control
NUMERIC READOUT: 75
//
ITEM SMILES: C=CC(=O)Nc1cccc(Nc2nc(N[C@H]3CC[C@H](N(C)C)CC3)nc3c2ncn3C(C)C)c1
OBSERVABLE: kinase still bound, per cent of control
NUMERIC READOUT: 70
//
ITEM SMILES: N#CCNC(=O)c1ccc(-c2ccnc(Nc3ccc(N4CCOCC4)cc3)n2)cc1
OBSERVABLE: kinase still bound, per cent of control
NUMERIC READOUT: 29
//
ITEM SMILES: C=CC(=O)Nc1cccc(Oc2nc(Nc3ccc(N4CCN(C)CC4)cc3OC)ncc2Cl)c1
OBSERVABLE: kinase still bound, per cent of control
NUMERIC READOUT: 100
//
ITEM SMILES: CCCS(=O)(=O)Nc1ccc(F)c(C(=O)c2c[nH]c3ncc(Cl)cc23)c1F
OBSERVABLE: kinase still bound, per cent of control
NUMERIC READOUT: 46

// kinase still bound, per cent of control lookup, key: `Cc1ccc(NC(=O)c2cccc(C(C)(C)C#N)c2)cc1Nc1ccc2ncn(C)c(=O)c2c1`
3.4

Same for `COc1cc2c(Nc3ccc(NC(=O)c4ccccc4)cc3)ncnc2cc1OCCCN1CCOCC1`
45

Same for `OCCCNc1cc(-c2ccnc(Nc3cccc(Cl)c3)n2)ccn1`
100

Same for `N#C/C(=C1/Nc2ccccc2S1)c1ccnc(NCCc2cccnc2)n1`
79

Same for `COc1cc2ncnc(Nc3cccc(Cl)c3)c2cc1OC`
6.6

Same for `COc1cc(C(=O)NC2CCN(C)CC2)ccc1Nc1ncc2c(n1)N(C1CCCC1)CCC(=O)N2C(C)C`
100

----------
target: CAMK2A (human); assay: KINOMEscan competition binding; settings: compound 10.0 µM
We label by threshold. Values of kinase still bound, per cent of control strictly beneath 90% are t. Values of 90% and up are f.

Examples from the recorded data:
MOLECULE: O=C(NOC[C@H](O)CO)c1ccc(F)c(F)c1Nc1ccc(I)cc1F
CLASS NAME: f
//
MOLECULE: CCN1CCN(Cc2ccc(Nc3ncc4c(n3)N(C)c3ccccc3C(=O)N4C)cc2C(F)(F)F)CC1
CLASS NAME: t

Does the reported kinase still bound, per cent of control of the following molecule sit strictly below 90%? `C[C@@H](Oc1cc(-n2cnc3ccc(CN4CCN(C)CC4)cc32)sc1C(N)=O)c1ccccc1C(F)(F)F`
t

----------
Reported kinase still bound, per cent of control by item:
molecular target: PKN2 (human); test: KINOMEscan competition binding; settings: compound 10.0 µM
Give the quantity in %, number only.

In the examples that follow, each entry is paired with its recorded kinase still bound, per cent of control.
ITEM SMILES: Cn1c(=O)n(-c2ccc(C(C)(C)C#N)cc2)c2c3cc(-c4cnc5ccccc5c4)ccc3ncc21
ASSAY TARGET: PKN2 (human)
UNIT ABBREVIATION: %
NUMERIC READOUT: 100
--
ITEM SMILES: Cc1ccc(C(=O)Nc2cccc(C(F)(F)F)c2)cc1Nc1cncc(C(N)=O)c1
ASSAY TARGET: PKN2 (human)
UNIT ABBREVIATION: %
NUMERIC READOUT: 100
--
ITEM SMILES: COc1cc(N2CCN(C)CC2)ccc1Nc1nc(N)c(C(=O)c2c(Cl)cccc2Cl)s1
ASSAY TARGET: PKN2 (human)
UNIT ABBREVIATION: %
NUMERIC READOUT: 98

// kinase still bound, per cent of control lookup, key: `Cc1ccc(NC(=O)c2cccc(C(C)(C)C#N)c2)cc1Nc1ccc2ncn(C)c(=O)c2c1`
100

Same for `C=CC(=O)Nc1cc(NC(=O)c2ccc(C)c(NC(=O)c3ccno3)c2)cc(C(F)(F)F)c1`
100

Same for `CCN1CCN(Cc2ccc(Nc3ncc4c(n3)N(C)c3ccccc3C(=O)N4C)cc2C(F)(F)F)CC1`
55

Same for `OCCCNc1cc(-c2ccnc(Nc3cccc(Cl)c3)n2)ccn1`
100

Same for `O=C1Nc2ccc(I)cc2/C1=C/c1cc(Br)c(O)c(Br)c1`
99

Same for `O=C(O)c1ccc(Nc2ncc3c(n2)-c2ccc(Cl)cc2C(c2c(F)cccc2F)=NC3)cc1`
79

Same for `Cc1ccc2nc(NCCN)c3ncc(C)n3c2c1`
71

----------
target: UniProt P36888; test: KINOMEscan competition binding; conditions: compound 10.0 µM
Sequence (P36888 whole entry, looked up): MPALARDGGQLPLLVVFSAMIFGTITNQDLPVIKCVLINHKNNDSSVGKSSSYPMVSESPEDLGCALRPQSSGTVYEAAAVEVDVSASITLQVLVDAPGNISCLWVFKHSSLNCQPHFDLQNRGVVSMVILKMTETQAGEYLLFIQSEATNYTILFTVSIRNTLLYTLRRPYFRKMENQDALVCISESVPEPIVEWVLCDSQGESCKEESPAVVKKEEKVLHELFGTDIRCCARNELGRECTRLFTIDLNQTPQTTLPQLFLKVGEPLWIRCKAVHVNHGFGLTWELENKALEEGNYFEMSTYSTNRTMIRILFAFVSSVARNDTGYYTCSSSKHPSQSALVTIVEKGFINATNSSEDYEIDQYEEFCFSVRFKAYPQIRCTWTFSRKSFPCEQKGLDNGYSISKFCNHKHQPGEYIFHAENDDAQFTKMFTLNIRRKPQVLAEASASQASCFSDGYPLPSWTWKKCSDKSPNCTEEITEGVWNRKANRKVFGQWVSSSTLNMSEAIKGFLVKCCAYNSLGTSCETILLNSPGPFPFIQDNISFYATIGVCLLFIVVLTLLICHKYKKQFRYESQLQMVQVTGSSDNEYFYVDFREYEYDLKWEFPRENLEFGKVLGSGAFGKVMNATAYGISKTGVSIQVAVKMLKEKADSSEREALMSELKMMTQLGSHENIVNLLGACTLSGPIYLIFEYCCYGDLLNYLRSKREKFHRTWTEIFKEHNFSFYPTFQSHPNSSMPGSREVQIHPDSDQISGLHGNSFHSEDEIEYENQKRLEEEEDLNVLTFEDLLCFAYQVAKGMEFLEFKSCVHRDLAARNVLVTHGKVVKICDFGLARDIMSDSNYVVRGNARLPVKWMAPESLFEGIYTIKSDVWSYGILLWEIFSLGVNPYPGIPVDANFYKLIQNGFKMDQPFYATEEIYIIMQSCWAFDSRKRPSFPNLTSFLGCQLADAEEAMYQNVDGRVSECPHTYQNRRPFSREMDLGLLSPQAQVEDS
OBSERVABLE: kinase still bound, per cent of control
Note: state the figure and append the unit.

COMPOUND: COc1cc(C(=O)NC2CCN(C)CC2)ccc1Nc1ncc2c(n1)N(C1CCCC1)CCC(=O)N2C(C)C
ASSAY TARGET: UniProt P36888
kinase still bound, per cent of control: 100%

// kinase still bound, per cent of control lookup, key: `Nc1ccc(-c2ccc3ncc4ccc(=O)n(-c5cccc(C(F)(F)F)c5)c4c3c2)cn1`
12%

Same for `O=C(NC1CC1)c1cccc(-c2ccc3c(NC(=O)C4CC4)n[nH]c3c2)c1`
63%

Same for `CCC(=O)N1CCN(c2ccc(-n3c(=O)ccc4cnc5ccc(-c6cnc7ccccc7c6)cc5c43)cc2C(F)(F)F)CC1`
16%

Same for `Cc1ccc2nc(NCCN)c3ncc(C)n3c2c1`
100%
